Provenance of the data: patent US20050148570A1

System: M. catarrhalis
endpoint: MIC (µg/mL)

# example entries with known answers
INSERT INTO results (compound, target, endpoint, reading_unit, reported) VALUES
  ('CCCC1CC(c2ccc(O)cc2)(c2ccc(O)c(Cl)c2)C1 (stereo not shown)', 'M. catarrhalis', 'MIC', 'µg/mL', 1),
  ('CCCCC1CC(c2ccc(O)cc2)(c2ccc(O)cc2)C1', 'M. catarrhalis', 'MIC', 'µg/mL', 3),
  ('CCCCC1CC(c2ccc(O)cc2)(c2ccc(O)c(Cl)c2)C1 (stereo not shown)', 'M. catarrhalis', 'MIC', 'µg/mL', 1),
  ('CCCC1CC(c2ccc(O)c(Cl)c2)(c2ccc(O)c(Cl)c2)C1', 'M. catarrhalis', 'MIC', 'µg/mL', 1);

(A) CCCCC1CC(c2ccc(O)c(C)c2)(c2ccc(O)c(C)c2)C1
(B) CCCC1CC(c2ccc(O)cc2)(c2ccc(O)cc2)C1
(C) CCCC1CC(c2ccc(O)c(C)c2)(c2ccc(O)c(C)c2)C1
Query string: Order each entry by recorded MIC, climbing from the minimum. Returns: the labels listed in the requested order.
Result string: A, C, B
